target: 11βHSD1 (Homo sapiens, UniProt P28845); construct: microsome fraction; experiment: Determination of 11βHSD1 inhibitory activity (microsome fraction, cortisone to cortisole, competitive ELISA); details: microsome fraction of Reference Example 2a; 500 nM cortisone, 400 μM NADPH substrate solution; room temperature 60 min
Sequence (P28845 whole entry): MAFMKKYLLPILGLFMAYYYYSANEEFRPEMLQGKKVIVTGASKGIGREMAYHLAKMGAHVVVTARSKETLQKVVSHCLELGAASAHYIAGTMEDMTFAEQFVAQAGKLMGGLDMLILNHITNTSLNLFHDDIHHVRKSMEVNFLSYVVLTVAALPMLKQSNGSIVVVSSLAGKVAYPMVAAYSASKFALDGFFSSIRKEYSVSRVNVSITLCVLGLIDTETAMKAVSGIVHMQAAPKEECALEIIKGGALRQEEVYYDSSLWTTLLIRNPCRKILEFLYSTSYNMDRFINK
Field: IC50. Provide a value for each of the compounds that follow.

Qu. Recorded IC50 for CN(Cc1c(Cl)cccc1Cl)C1CCN(C2CCCCC2)C1=O (stereo not shown) [Example 94A] , please?
Ans. 85 nM

Qu. Same again, this time with CC1(O)CCC(N2CCC(Cc3ccc(OCc4nc(-c5ccc(F)cc5)no4)cc3Cl)C2=O)CC1 (stereo not shown) [Example 619A]
Ans. 46 nM

Qu. Try the compound CS(=O)(=O)Nc1cccc(-c2ccc(CC3CCN(C4C5CC6CC4CC(O)(C6)C5)C3=O)c(Cl)c2)c1 (stereo not shown) [Example 470A]
Ans. 37 nM

Qu. And for CC1(O)CCC(N2CCC(Cc3ccc(-c4cccc(CO)c4)cc3Cl)C2=O)CC1 (stereo not shown) [Example 654A] ?
Ans. 150 nM

Ref: patent US20090264650A1
